System: A498
assay comment: NCI tumour cell line growth inhibition, 48 h
The source made the active and inactive calls. No stated cut-off is given here; in the data, active = GI50 up to about 1.1 µM and inactive = higher.
Mark one answer only. Choices: Yes (active), No (inactive)

Use the examples below as a reference point.
| molecule | cat |
| --- | --- |
| c1ccc(C2(c3cc4ccccc4[nH]3)OCCO2)cc1 | No |
| COc1cc(Nc2nc3cc(C(F)(F)F)ccc3nc2C(=O)O)cc(OC)c1OC | No |

Query :: Could you kindly confirm the outcome this assay logged for "c1ccc2c(c1)ccn1ccc3c4ccccc4nc-3c21" ?
Result :: Yes

Query :: Could you kindly confirm the outcome this assay logged for "COc1ccc2nc3cc(Cl)ccc3c(NCCCNCCCNc3c4ccc(Cl)cc4nc4ccc(OC)cc34)c2c1" ?
Result :: Yes

Query :: Could you kindly confirm the outcome this assay logged for "CN(C)Cc1cc(C(=O)/C=C/c2ccc(/C=C/C(=O)c3cc(CN(C)C)c(O)c(CN(C)C)c3)cc2)cc(CN(C)C)c1O" ?
Result :: No

Query :: Could you kindly confirm the outcome this assay logged for "CCCN(CCC)C(=O)c1c(Cl)c2cccnc2n2c(C)cnc12" ?
Result :: No

Query :: Could you kindly confirm the outcome this assay logged for "NC(=O)C(=CN1C(=O)CC(=O)NC1=S)C(N)=O" ?
Result :: No

Query :: Could you kindly confirm the outcome this assay logged for CC#CC#C/C=C1/O[C@]2(CCC(OC(C)=O)CO2)[C@@H]2O[C@H]12 (stereo partly specified) ?
Result :: No
